Measured pEC50 by item
Target: Glycogen synthase kinase-3 beta (Homo sapiens)
Test: concentration-response blocking of human GSK3B – biochemical, luminescence, cell-free homogeneous, retest, dose response (AID 434954)
pEC50: −log10 of the molar value.

Ask: Given the molecule CCOC(=O)C1C(C)=Nc2ncnn2C1c1ccc(N(C)C)cc1 (stereo not given) , what is its reported pEC50?
Result: < 3.52

Ask: Try `COc1ccc(-c2nn(-c3ccccc3)cc2C(=O)O)cc1OC` next.
Result: < 3.52

Ask: Try `O=c1cc(-c2ccncc2)oc2ccccc12` next.
Result: 4.75

Ask: Try `O=C(Nc1cccc2c1C(=O)NC2=O)c1cccnc1Cl` next.
Result: < 3.52

Ask: Try CCOC(=O)C1C(C(F)(F)F)=Nc2ncnn2C1c1cc(OC)ccc1OC (stereo not given) next.
Result: < 3.52

----------
Biological target: Glycogen synthase kinase-3 beta (Homo sapiens)
Assay: concentration-response blocking of human GSK3B – biochemical, luminescence, cell-free homogeneous, retest, dose response (AID 434954)
Measured EC50 by item

Below: 5 compounds and their reported EC50.
{"columns": ["COMPOUND", "MEAS VALUE"],
 "data": [
  ["NC(=O)c1ncn([C@@H]2O[C@H](CO)[C@@H](O)[C@H]2O)c1O", "> 300 µM"],
  ["Cc1sc2ncnc(N3CCCCC3C)c2c1C (configuration not stated)", "> 300 µM"],
  ["Clc1ccccc1Nc1nc(-c2ccncc2)nc2ccccc12 [MLS001163918]", "> 300 µM"],
  ["Cc1cccc2cc3c(NC(=O)C(C)(C)C)nn(CC(C)C)c3nc12", "> 300 µM"],
  ["CCN(CC)Cc1c(O)ccc2c(=O)c(-c3ccc4c(c3)OCCO4)coc12 [MLS000552107]", "> 300 µM"]
]}

Ask: Given the compound `O=C1CN=C(c2ccccc2)c2c(sc3c2CCCC3)N1` , what is its reported EC50?
Result: 27.8 µM

Ask: Try CCc1ccccc1NC(=O)CSc1nnc(-c2ccncc2)o1 [SMR000324383] next.
Result: > 300 µM

Ask: Try Cc1ccc2c(c1)NC(c1cccs1)C1C(=O)CC(C)(C)CC1=N2 (configuration not stated) next.
Result: > 300 µM

Ask: Try COC(=O)CSc1ncnc2c1sc1nc(N3CCOCC3)c3c(c12)CCCC3 [MLS000535174] next.
Result: > 300 µM

Ask: Try CC(C)(C)NC(=O)NC(=O)COc1ccc(Br)cc1Br [SMR000254856] next.
Result: > 300 µM

Ask: Try `COc1cccc(-c2nnc3sc(C4CCCCC4)nn23)c1` next.
Result: 16.3 µM

Ask: Try `CC(C)(C)NC(=O)NC(=O)CSc1nncs1` next.
Result: > 300 µM

Ask: Try CSc1nc(NCc2ccco2)c2c3c(sc2n1)CN(C)CC3 [MLS000082597] next.
Result: 30.2 µM

Ask: Try CC1Cc2cc(-c3csc(NC(=O)Cc4ccccc4)n3)ccc2N1S(C)(=O)=O (configuration not stated) next.
Result: > 300 µM

Ask: Try `NC(=O)c1cccc2c1C(=O)N(C1CCCCC1)C2` next.
Result: > 300 µM

----------
Measured EC50 by item
Biological target: Glycogen synthase kinase-3 beta (Homo sapiens)
Experiment: concentration-response blocking of human GSK3B – biochemical, luminescence, cell-free homogeneous, retest, dose response (AID 434954)

{"columns": ["COMPOUND", "TARGET SYSTEM", "MEASUREMENT LABEL", "MEAS VALUE"],
 "data": [
  ["CN1CCc2c(sc3c2c(=O)n(-c2ccc(Cl)cc2)c2nncn32)C1", "Glycogen synthase kinase-3 beta (Homo sapiens)", "EC50", "> 300 µM"],
  ["CCSc1nnc(NC(=O)CSc2nnc(CNC(=O)c3cc(OC)c(OC)c(OC)c3)o2)s1", "Glycogen synthase kinase-3 beta (Homo sapiens)", "EC50", "> 300 µM"],
  ["COc1cccc2cc(C(=O)CS(=O)(=O)c3ccc(Cl)cc3)c(=O)oc12", "Glycogen synthase kinase-3 beta (Homo sapiens)", "EC50", "> 300 µM"],
  ["OCC1(Cc2ccccc2)CCN(Cc2ccc(-c3ccco3)cc2)CC1", "Glycogen synthase kinase-3 beta (Homo sapiens)", "EC50", "> 300 µM"],
  ["COc1ccc2occ(C(=O)c3coc4ccc(O)c(CN(C)C)c34)c2c1", "Glycogen synthase kinase-3 beta (Homo sapiens)", "EC50", "1.99 µM"],
  ["O=C(CSc1nnc(CNC(=O)c2cccc(C(F)(F)F)c2)o1)NC1CCCCC1", "Glycogen synthase kinase-3 beta (Homo sapiens)", "EC50", "> 300 µM"],
  ["CCOc1cc(C=NN=C(N)N)ccc1OCc1ccc(Cl)cc1", "Glycogen synthase kinase-3 beta (Homo sapiens)", "EC50", "> 300 µM"],
  ["NNc1ncnc2c1cnn2-c1ccccc1", "Glycogen synthase kinase-3 beta (Homo sapiens)", "EC50", "12.8 µM"],
  ["CC(C)Nc1nc(-c2ccncc2)nc(-c2ccc(Cl)cc2)c1C#N", "Glycogen synthase kinase-3 beta (Homo sapiens)", "EC50", "> 300 µM"],
  ["CC(C)Cn1nc(NC(=O)c2cccs2)c2cc3ccccc3nc21", "Glycogen synthase kinase-3 beta (Homo sapiens)", "EC50", "21.5 µM"]
]}

Ask: Given the compound `COc1ccc(C(=O)c2coc3ccc(O)c(CN4CCOCC4)c23)cc1` , what is its reported EC50?
Result: > 300 µM

Ask: Try `CCN1C(=O)N[C@@H](c2ccccc2)[C@@H](C(=O)OC)[C@H]1C` next.
Result: > 300 µM

Ask: Try O=C(NNC(=O)C1[C@H]2CCCC[C@@H]12)c1ccc(=O)oc1 (stereo partly specified) next.
Result: > 300 µM

Ask: Try O=C(NCC1COc2ccccc2O1)c1ccccc1 (stereo unspecified) next.
Result: > 300 µM

----------
Biological target: Glycogen synthase kinase-3 beta (Homo sapiens, UniProt P49841)
Sequence (P49841 whole entry): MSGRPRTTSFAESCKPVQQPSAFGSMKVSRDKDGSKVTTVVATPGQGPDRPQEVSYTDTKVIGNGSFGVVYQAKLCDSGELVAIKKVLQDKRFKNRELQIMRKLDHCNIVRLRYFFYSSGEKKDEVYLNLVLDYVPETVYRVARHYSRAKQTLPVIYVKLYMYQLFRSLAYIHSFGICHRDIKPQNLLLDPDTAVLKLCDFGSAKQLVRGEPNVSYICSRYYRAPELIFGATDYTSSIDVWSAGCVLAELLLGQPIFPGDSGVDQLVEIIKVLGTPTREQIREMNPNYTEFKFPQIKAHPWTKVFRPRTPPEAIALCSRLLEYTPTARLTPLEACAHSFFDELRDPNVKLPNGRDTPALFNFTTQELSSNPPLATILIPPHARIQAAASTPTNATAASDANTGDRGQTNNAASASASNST
Experiment: concentration-response blocking of human GSK3B – biochemical, luminescence, cell-free homogeneous, retest, dose response (AID 434954)
Measured EC50 by item

{"columns": ["COMPOUND", "TARGET SYSTEM", "EC50"],
 "data": [
  ["CC(C)(C)c1ccc(C=Nn2cnnc2)cc1", "Glycogen synthase kinase-3 beta (Homo sapiens, UniProt P49841)", "> 300 µM"],
  ["COc1nc(NCCN2CCOCC2)nc(Nc2ccc([N+](=O)[O-])cc2)n1", "Glycogen synthase kinase-3 beta (Homo sapiens, UniProt P49841)", "> 300 µM"],
  ["O=C1CCCC2=Nc3ncnn3C(c3cccs3)C12 (stereo not given)", "Glycogen synthase kinase-3 beta (Homo sapiens, UniProt P49841)", "> 300 µM"]
]}

Ask: Given the compound Cc1cc(NC(=O)CCC(=O)N(c2cccnc2)C(C(=O)NC2CCCC2)c2ccccc2F)no1 (stereo not given) , what is its reported EC50?
Result: > 300 µM

----------
Target: Glycogen synthase kinase-3 beta (Homo sapiens)
Assay: concentration-response blocking of human GSK3B – biochemical, luminescence, cell-free homogeneous, retest, dose response (AID 434954)
MEASUREMENT LABEL: pEC50
Friendly reminder that pEC50 comes from taking -log10 of the concentration in mol/L.

{"columns": ["COMPOUND", "TARGET SYSTEM", "pEC50"],
 "data": [
  ["O=C(COc1ccccc1[N+](=O)[O-])NN=Cc1ccc(OC(=O)c2ccco2)cc1", "Glycogen synthase kinase-3 beta (Homo sapiens)", 4.83],
  ["COc1cc(-c2n[nH]c3c2C(c2ccco2)C(C#N)C(=N)O3)cc(OC)c1OC (stereo unspecified)", "Glycogen synthase kinase-3 beta (Homo sapiens)", 5.07]
]}

We next turn to a different compound, shown below.
Ask: Lab request: please report pEC50 under test system Glycogen synthase kinase-3 beta (Homo sapiens) for `Nc1nc(NCc2ccccc2)nc(NCCO)c1[N+](=O)[O-]`
Result: 4.14

----------
Biological target: Glycogen synthase kinase-3 beta (Homo sapiens, UniProt P49841)
Assay: concentration-response blocking of human GSK3B – biochemical, luminescence, cell-free homogeneous, retest, dose response (AID 434954)
Measured EC50 by item

Below: 2 compounds and their reported EC50.
{"columns": ["COMPOUND", "EC50"],
 "data": [
  ["CCN(CC)S(=O)(=O)c1cccc(NC(=O)COc2ccc(Cl)cc2Br)c1", "> 300 µM"],
  ["c1c2c(cc3sc(N4CCOCC4)nc13)OCCO2", "> 300 µM"]
]}

Ask: Given the compound `COc1ccc(C(C)(C)C)cc1NS(=O)(=O)c1cccc2cccnc12` , what is its reported EC50?
Result: > 300 µM

Ask: Try `CCOC(=O)c1cnc2ccc(OC)cc2c1NCCc1ccc(OC)c(OC)c1` next.
Result: > 300 µM

Ask: Try COc1ccc(OC)c(Nc2c3ccccc3nc3ccccc23)c1 [N-(2,5-dimethoxyphenyl)-9-acridinamine] next.
Result: > 300 µM

Ask: Try COc1ccc(-c2nn(-c3ccccc3)cc2CN=Nc2ccc(Cl)c(C(=O)O)c2)cc1OC [SMR000371971] next.
Result: > 300 µM

Ask: Try Nc1nc(NCCCN2CCOCC2)nc(Nc2ccccc2)c1[N+](=O)[O-] [SMR000219678] next.
Result: 2.24 µM

Ask: Try `Cc1ccc(OCC(=O)NN=Cc2ccccc2)c([N+](=O)[O-])c1` next.
Result: > 300 µM

Ask: Try `CCOC(=O)c1nnn(-c2nonc2N)c1COc1ccccc1` next.
Result: 23.8 µM

Ask: Try CCOc1ccc2c(c1)C(=O)C(=O)N2CC1COc2ccccc2O1 (stereo not given) next.
Result: > 300 µM
